B1: tRNA (parent)
chain: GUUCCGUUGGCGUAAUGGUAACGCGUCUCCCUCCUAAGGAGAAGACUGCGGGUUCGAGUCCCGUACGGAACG

variants of: B1; experiment: yeast fitness relative to wild type (ratio to wild type); higher = fitter; tRNA-Arg(CCU), competitive growth, 37 C, YPD
Variants at the floor of the assay were thinned out.
quantity-measured: yeast fitness
Enter the number alone.

Reference set (3 entries):
>>> assay_value("GUUCCGUUGGCGUAAUAGUAACGCGUCUCCCUCCUAAGGAGAAGGCUGCGGGUUCGAGUCCCGUACGGAACG [G17A A45G]")
0.875
>>> assay_value("GUUCCGUUGGCGUAAUGGUAGCGCGUCUCCCUCCUAAGGAGAAGACUGCGGGUUCGUGUCCCGUACGGAUCG [A21G A57U A70U]")
0.582
>>> assay_value("GUUCCGUUGGCGUAAUGGUAACGCAUCUACCUCCUAAGGAGAAGACUGCGGGUUAGAGUCCCGUACGGAACG [G25A C29A C55A]")
0.625

Return reported yeast fitness; argument: GUUCCGUUGGCGUCCUGGUAACGCGUCUCCCUCGUAAGGAGACGACUGAGGGUUCGAGUCCCGUACGGAACG [A14C A15C C34G A43C C49A]
0.627

Return reported yeast fitness; argument: GUUCCGUUGGCGUAAUGGUAAGGCGUCUCCCUCCUAAGGAGAAGACUGCGGGCUCGAGUCCCGUCCGGAACG [C22G U53C A65C]
0.558

Return reported yeast fitness; argument: GAUCCGUUGGCGUAAUGGUGACGCGUCUCCCUCCUAAGGAGAAAACUGCGGGUUCGAGUCCCGUACGGAACG [U2A A20G G44A]
0.531

Return reported yeast fitness; argument: GUUCCGUUGGCGUAAUGGUAACGCGACUCCCUCCUAAGGGGAAGACUGCGGGUUCGACUCCCGUACUGAACG [U26A A40G G58C G67U]
0.556

Return reported yeast fitness; argument: GUUCGGUUGGCGUAAUGGUAACGCGUUUCCCUCCUAAGGACAAGACUGCGGGUUCGCGUCCCGUACGGAACG [C5G C27U G41C A57C]
0.565

Return reported yeast fitness; argument: GUUCCGUUGGCGUAAUGGAAACGCGUCUCCCUCCUAUGGAGAGGACUGCGGGUUCGGGUCCCGUACGGAACG [U19A A37U A43G A57G]
0.594

Return reported yeast fitness; argument: GUUCAGUUGGCGUAAUGGUAACGCGUCUCCCUCCUAAAGAGAAGACUGCGGGUUCGAGUCCCGUACGGAACG [C5A G38A]
0.664

Return reported yeast fitness; argument: GUUGCGUUGGCGUAAUGGUAACGCGUCUCCCUCCUACGGAGAAGACUGCGAGUUCGAGUCCCGUACGGAACG [C4G A37C G51A]
0.628

Return reported yeast fitness; argument: GUUCCGUUGGCGUAAUGGUAACGCGUCUCACUCCUAAGGAGAAGACUGCGGGUUCGAGUCCCGUACUGAACG [C30A G67U]
0.671
